Just for reference, PubChem BioAssay AID2060507 is where these values come from.

# Tested on: 519858-162-T-J1-PDC complex spheroid viability
# assay.protocol: Anticancer human tumor 519858-162-T-J1-PDC patient-derived colon adenocarcinoma cell line growth inhibition [GQUAD]
# study.conditions: second compound 3.16 µM; first compound 3.16 µM; stronger effect = lower value
measured.parameter: viability, T/C (%)
One number for each entry, in %.

Sample answers from the record:
CC(C)n1c(=O)n(C)c2cnc3cc(F)c(-c4ccc(OCCCN5CCCCC5)nc4)cc3c21 + Cc1[nH]c2ccc(F)cc2c1-c1nc2c3cccnc3c3ncccc3c2[nH]1: 50.5
CC(C)n1c(=O)n(C)c2cnc3cc(F)c(-c4ccc(OCCCN5CCCCC5)nc4)cc3c21 + Cc1cnc(CNC(=O)c2c(=O)c3ccc(N4CCCN(C)CC4)nc3n3c2sc2ccccc23)cn1: 60.2
C=CC(=O)N1CCN(c2nc(=O)n(-c3c(C)ccnc3C(C)C)c3nc(-c4c(O)cccc4F)c(F)cc23)C(C)C1 (stereo not given) + CN(C)c1ccc(Nc2c3ccc(NC(=O)CCN4CCCC4)cc3nc3cc(NC(=O)CCN4CCCC4)ccc23)cc1: 47.6
COc1ccc([C@@H](O)c2cc(-c3ncnc4cc(N5CCOCC5)ccc34)c(F)cc2Cl)nn1 + Cc1cnc(CNC(=O)c2c(=O)c3ccc(N4CCCN(C)CC4)nc3n3c2sc2ccccc23)cn1: 34.8

Exam item: Name the reported viability, T/C value associated with the compound C#Cc1c(F)ccc2cc(O)cc(-c3ncc4c(N5CC6CCC(C5)N6)nc(OCC56CCCN5CC(F)C6)nc4c3F)c12 (stereo not given) + Cc1cnc(CNC(=O)c2c(=O)c3ccc(N4CCCN(C)CC4)nc3n3c2sc2ccccc23)cn1
Marked response: 34.5

----------
# Test system: 519858-162-T-J1-PDC complex spheroid viability
# assay.protocol: Anticancer human tumor 519858-162-T-J1-PDC cell line growth inhibition [GQUAD]
# study.conditions: second compound 0.316 µM; first compound 0.0316 µM; stronger effect = lower value
Field: label. Allowed values: True (viability, T/C < 90%) or False (viability, T/C >= 90%).

Example entries and their recorded answers appear below.
CC1COCCN1c1cc(C2(O)CC3CCC(C2)O3)c2cnn(-c3ccn[nH]3)c2n1 (stereo not given) + CN(C)c1ccc(Nc2c3ccc(NC(=O)CCN4CCCC4)cc3nc3cc(NC(=O)CCN4CCCC4)ccc23)cc1: False
CC1COCCN1c1cc(C2(S(C)(=N)=O)CC2)nc(-c2ccnc3[nH]ccc23)n1 (stereo not given) + Cc1cnc(CNC(=O)c2c(=O)c3ccc(N4CCCN(C)CC4)nc3n3c2sc2ccccc23)cn1: True
COc1ncnc(C2CC2)c1-c1ncc2cnn(Cc3ccc(-c4nc(C(F)(F)F)cn4C(C)C)cc3)c2n1 + CN(C)c1ccc(Nc2c3ccc(NC(=O)CCN4CCCC4)cc3nc3cc(NC(=O)CCN4CCCC4)ccc23)cc1: True

Exam item: viability, T/C strictly < 90% for this compound? COc1ccc([C@@H](O)c2cc(-c3ncnc4cc(N5CCOCC5)ccc34)c(F)cc2Cl)nn1 + Cc1[nH]c2ccc(F)cc2c1-c1nc2c3cccnc3c3ncccc3c2[nH]1
Marked response: False

Exam item: Quick check: viability, T/C of COc1cc(C2c3cc4c(cc3C(OC3OC5COC(C)OC5C(O)C3O)C3COC(=O)C23)OCO4)cc(OC)c1O (stereo not given) + CN(C)c1ccc(Nc2c3ccc(NC(=O)CCN4CCCC4)cc3nc3cc(NC(=O)CCN4CCCC4)ccc23)cc1 under 90%?
Marked response: False

----------
Assignment: determine reported viability, T/C for the given compounds.
# Test system: 519858-162-T-J1-PDC complex spheroid viability
# assay.protocol: Anticancer human tumor 519858-162-T-J1-PDC cell line growth inhibition [GQUAD];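 further: spheroids exposed to compounds for 7 days; 100% = DMSO vehicle control viability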
# study.conditions: second compound 0.1 µM; first compound 0.1 µM; stronger effect = lower value
Give bare numbers, in %.

These solved cases illustrate the format of a correct answer.
CC(C)n1c(=O)n(C)c2cnc3cc(F)c(-c4ccc(OCCCN5CCCCC5)nc4)cc3c21 + Cc1[nH]c2ccc(F)cc2c1-c1nc2c3cccnc3c3ncccc3c2[nH]1: 96.8
CC(=O)O[C@H]1C(=O)[C@@]2(C)[C@H]([C@H](OC(=O)c3ccccc3)[C@]3(O)C[C@H](OC(=O)[C@H](O)[C@@H](NC(=O)c4ccccc4)c4ccccc4)C(C)=C1C3(C)C)[C@]1(OC(C)=O)CO[C@@H]1C[C@@H]2O + Cc1[nH]c2ccc(F)cc2c1-c1nc2c3cccnc3c3ncccc3c2[nH]1: 97.5

Would you mind giving viability, T/C for every compound in the list below?
1. CC1COCCN1c1cc(C2(O)CC3CCC(C2)O3)c2cnn(-c3ccn[nH]3)c2n1 (stereo not given) + Cc1cnc(CNC(=O)c2c(=O)c3ccc(N4CCCN(C)CC4)nc3n3c2sc2ccccc23)cn1
2. CC1COCCN1c1cc(C2(S(C)(=N)=O)CC2)nc(-c2ccnc3[nH]ccc23)n1 (stereo not given) + Cc1cnc(CNC(=O)c2c(=O)c3ccc(N4CCCN(C)CC4)nc3n3c2sc2ccccc23)cn1
3. Nc1ccn(C2OC(CO)C(O)C2(F)F)c(=O)n1 (stereo not given) + Cc1[nH]c2ccc(F)cc2c1-c1nc2c3cccnc3c3ncccc3c2[nH]1

Marked response:
1: 85.8; 2: 91.3; 3: 143

----------
# Tested on: 519858-162-T-J1-PDC complex spheroid viability
# assay.protocol: Anticancer human tumor 519858-162-T-J1-PDC cell line growth inhibition [GQUAD]; active means viability on the fitted dose curve at most 10% of control; inactive means the rest;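 further: spheroids exposed to compounds for 7 days; 100% = DMSO vehicle control viability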
# study.conditions: second compound 0.316 µM; first compound 10 µM
Permitted responses: active, inactive

Please review the entries below; each comes with its answer.
O=C(c1cc(Cc2n[nH]c(=O)c3ccccc23)ccc1F)N1CCN(C(=O)C2CC2)CC1 + Cc1cnc(CNC(=O)c2c(=O)c3ccc(N4CCCN(C)CC4)nc3n3c2sc2ccccc23)cn1: inactive
O=C(NO)c1cnc(N2CCN(S(=O)(=O)c3ccc4ccccc4c3)CC2)nc1 + Cc1cnc(CNC(=O)c2c(=O)c3ccc(N4CCCN(C)CC4)nc3n3c2sc2ccccc23)cn1: active
COc1cccc2c1C(=O)c1c(O)c3c(c(O)c1C2=O)CC(O)(C(=O)CO)CC3OC1CC(N)C(O)C(C)O1 (centres undefined) + Cc1cnc(CNC(=O)c2c(=O)c3ccc(N4CCCN(C)CC4)nc3n3c2sc2ccccc23)cn1: inactive

Exam item: What call does the record list for Nc1ccn(C2OC(CO)C(O)C2(F)F)c(=O)n1 (centres undefined) + Cc1[nH]c2ccc(F)cc2c1-c1nc2c3cccnc3c3ncccc3c2[nH]1 ?
Marked response: inactive

----------
# System: 519858-162-T-J1-PDC complex spheroid viability
# assay.protocol: Anticancer human tumor 519858-162-T-J1-PDC cell line growth inhibition [GQUAD]; active = viability on the fitted dose curve at most 10% of control; inactive = the rest;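 further: spheroids exposed to compounds for 7 days; 100% = DMSO vehicle control viability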
# study.conditions: second compound 1 µM; first compound 3.16 µM
One label from this list, please: active, inactive

CC(=O)O[C@H]1C(=O)[C@@]2(C)[C@H]([C@H](OC(=O)c3ccccc3)[C@]3(O)C[C@H](OC(=O)[C@H](O)[C@@H](NC(=O)c4ccccc4)c4ccccc4)C(C)=C1C3(C)C)[C@]1(OC(C)=O)CO[C@@H]1C[C@@H]2O + Cc1cnc(CNC(=O)c2c(=O)c3ccc(N4CCCN(C)CC4)nc3n3c2sc2ccccc23)cn1: inactive

Exam item: Which outcome was assigned to O=C(c1cc(Cc2n[nH]c(=O)c3ccccc23)ccc1F)N1CCN(C(=O)C2CC2)CC1 + Cc1[nH]c2ccc(F)cc2c1-c1nc2c3cccnc3c3ncccc3c2[nH]1 in this test?
Marked response: inactive

Exam item: Please state the recorded outcome for this molecule: CC(C)(O)C1CCC(Nc2ccc3ncc(-c4cccc(C(F)(F)F)c4)n3n2)CC1 (stereo not given) + Cc1[nH]c2ccc(F)cc2c1-c1nc2c3cccnc3c3ncccc3c2[nH]1
Marked response: active

Exam item: Look up the recorded call for COc1ccc([C@@H](O)c2cc(-c3ncnc4cc(N5CCOCC5)ccc34)c(F)cc2Cl)nn1 + Cc1cnc(CNC(=O)c2c(=O)c3ccc(N4CCCN(C)CC4)nc3n3c2sc2ccccc23)cn1 in this test.
Marked response: inactive

Exam item: Call for entry COc1cccc2c1C(=O)c1c(O)c3c(c(O)c1C2=O)CC(O)(C(=O)CO)CC3OC1CC(N)C(O)C(C)O1 (stereo not given) + CN(C)c1ccc(Nc2c3ccc(NC(=O)CCN4CCCC4)cc3nc3cc(NC(=O)CCN4CCCC4)ccc23)cc1 :
Marked response: inactive

Exam item: # fetch the recorded call for O=C(NO)c1cnc(N2CCN(S(=O)(=O)c3ccc4ccccc4c3)CC2)nc1 + Cc1[nH]c2ccc(F)cc2c1-c1nc2c3cccnc3c3ncccc3c2[nH]1 here
Marked response: active

Exam item: Would you mind telling me which call this test gave COc1ccc([C@@H](O)c2cc(-c3ncnc4cc(N5CCOCC5)ccc34)c(F)cc2Cl)nn1 + Cc1[nH]c2ccc(F)cc2c1-c1nc2c3cccnc3c3ncccc3c2[nH]1 ?
Marked response: inactive

----------
Give measured viability, T/C for each item. Keep answers brief.
# System: 519858-162-T-J1-PDC complex spheroid viability
# assay.protocol: Anticancer human tumor 519858-162-T-J1-PDC cell line growth inhibition [GQUAD];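 further: spheroids exposed to compounds for 7 days; 100% = DMSO vehicle control viability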
# study.conditions: second compound 10 µM; first compound 3.16 µM; stronger effect = lower value
One number for each entry, in %.

Worked cases, answers included:
CC(C)(O)C1CCC(Nc2ccc3ncc(-c4cccc(C(F)(F)F)c4)n3n2)CC1 (stereo not given) + Cc1cnc(CNC(=O)c2c(=O)c3ccc(N4CCCN(C)CC4)nc3n3c2sc2ccccc23)cn1: 9.24
CC(C)(O)C1CCC(Nc2ccc3ncc(-c4cccc(C(F)(F)F)c4)n3n2)CC1 (stereo not given) + Cc1[nH]c2ccc(F)cc2c1-c1nc2c3cccnc3c3ncccc3c2[nH]1: 6.15
COc1ncnc(C2CC2)c1-c1ncc2cnn(Cc3ccc(-c4nc(C(F)(F)F)cn4C(C)C)cc3)c2n1 + Cc1cnc(CNC(=O)c2c(=O)c3ccc(N4CCCN(C)CC4)nc3n3c2sc2ccccc23)cn1: 47.6
CC(=O)O[C@H]1C(=O)[C@@]2(C)[C@H]([C@H](OC(=O)c3ccccc3)[C@]3(O)C[C@H](OC(=O)[C@H](O)[C@@H](NC(=O)c4ccccc4)c4ccccc4)C(C)=C1C3(C)C)[C@]1(OC(C)=O)CO[C@@H]1C[C@@H]2O + Cc1cnc(CNC(=O)c2c(=O)c3ccc(N4CCCN(C)CC4)nc3n3c2sc2ccccc23)cn1: 48.9
COc1cc(C2c3cc4c(cc3C(OC3OC5COC(C)OC5C(O)C3O)C3COC(=O)C23)OCO4)cc(OC)c1O (stereo not given) + Cc1[nH]c2ccc(F)cc2c1-c1nc2c3cccnc3c3ncccc3c2[nH]1: 74.8
Cc1cccc(N(C)C(=O)C2C(O)CCN2c2nc(C)cc(C(F)(F)F)c2C#N)c1 (stereo not given) + Cc1cnc(CNC(=O)c2c(=O)c3ccc(N4CCCN(C)CC4)nc3n3c2sc2ccccc23)cn1: 43.2
CC1COCCN1c1cc(C2(S(C)(=N)=O)CC2)nc(-c2ccnc3[nH]ccc23)n1 (stereo not given) + Cc1cnc(CNC(=O)c2c(=O)c3ccc(N4CCCN(C)CC4)nc3n3c2sc2ccccc23)cn1: 58.8
COc1ccc([C@@H](O)c2cc(-c3ncnc4cc(N5CCOCC5)ccc34)c(F)cc2Cl)nn1 + CN(C)c1ccc(Nc2c3ccc(NC(=O)CCN4CCCC4)cc3nc3cc(NC(=O)CCN4CCCC4)ccc23)cc1: 72.4
CC(C)n1c(=O)n(C)c2cnc3cc(F)c(-c4ccc(OCCCN5CCCCC5)nc4)cc3c21 + Cc1cnc(CNC(=O)c2c(=O)c3ccc(N4CCCN(C)CC4)nc3n3c2sc2ccccc23)cn1: 59.7

Shift focus to the following entry.
Exam item: Reported viability, T/C for COc1ccc([C@@H](O)c2cc(-c3ncnc4cc(N5CCOCC5)ccc34)c(F)cc2Cl)nn1 + Cc1[nH]c2ccc(F)cc2c1-c1nc2c3cccnc3c3ncccc3c2[nH]1 : what is it?
Marked response: 70.5
